These data points were gathered from the supplement of paper PMC10567573.

B1: EPB41L3 (parent)
chain: SMQCKVILLDGSEYTCDVEKRSRG

Variants of: B1
experimentalProtocol: protein stability index of a GFP-peptide fusion (GPS, HEK-293T) (PSI 1-6); higher = more stable;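 also: lentivirally expressed fusions sorted by FACS into six bins by GFP to DsRed ratio, PSI derived from sequencing read proportions per bin multiplied by bin number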
statedConditions: c terminus: a fixed tail appended
The threshold is inclusive: protein stability index of exactly 2 counts as Met; values below receive Not met.

Below are worked cases with known answers.
| sequenceCode | qualitativeLabel |
| --- | --- |
| SMQCKVILLGGSEYTCDVEKRSRG [D10G] | Met |
| SMQPKVILLDGSEYTCDVEKRSRG [C4P] | Met |
| SMMCKVILLDGSEYTCDVEKRSRG [Q3M] | Met |

Is protein stability index for SMQCKWILLDGSEYTCDVEKRSRG [V6W] at or above 2?
Met

Can you check SMQCKRILLDGSEYTCDVEKRSRG [V6R] next?
Met

Try this variant next: SMQCKVILLDGSEYTCDVKKRSRG [E19K]
Met

Repeat for the following variant: SMQCKVILLDGSEYTCDVEFRSRG [K20F]
Not met

Now try SMQCMVILLDGSEYTCDVEKRSRG [K5M] .
Not met

Another variant to check: SIQCKVILLDGSEYTCDVEKRSRG [M2I]
Met

How about SMQCKVILLDGSEYTCDTEKRSRG [V18T] ?
Met
